target: T1, human A-beta(1-40) peptide, monomeric (BAM) (human, biotin at the C-terminus in capture ELISA, SPR and TR-FRET; not biotinylated where coated directly (Example 7)); assay: TR-FRET competition; labelled competitor not given
T1 construct: synthetic peptide (Anaspec), TFA/HFIP treated to give monomer; also called monomeric A-beta
Reported IC50 values follow for various binders
Please state the number and follow it with the unit.

ABII008 (VHH, humanized variant of ABII002) VHH: EVQLLESGGGLVLPGGSLRLSCVHSGPTFRTDTMGWFRQAPGKGREFVAAVTWNSGRINYADSVKGRFTVSRDNSRNAAYLQMSGLKDEDTAVYYCTAHRFVVGGNRVEDWRYWGQGTLVTVSS; 1.9 nM
ABII030 (VHH, humanized variant of ABII002) VHH: EVQLLESGGGLVQPGGSLRLSCVHSGPTFRTDTMGWFRQAPGKGREFVAAVTWNSGRINYADSVKGRFTISRDNSKNAVYLQMNSLRPEDTAVYYCAAHRFVVGGNRVEDWRYWGQGTLVTVSS; 12 nM

Pending binder:
Ask: Please give the measured IC50 for this binder: ABII016 (VHH, humanized variant of ABII002) VHH: EVQLLESGGGLVLPGGSLRLSCVHSGPTFRTDTMGWFRQAPGKGREFVAAVTWNSGRINYADSVKGRFTVSRDNTRNAAYLQMSGLKPEDTAVYYCTAHRFVVGGNRVEDWRYWGQGTLVTVSS
Result: 2.4 nM
